Target: recombinant human proMMP9 (full length, latent form) (human, UniProt P14780 20-707)
Sequence (P14780 20-707): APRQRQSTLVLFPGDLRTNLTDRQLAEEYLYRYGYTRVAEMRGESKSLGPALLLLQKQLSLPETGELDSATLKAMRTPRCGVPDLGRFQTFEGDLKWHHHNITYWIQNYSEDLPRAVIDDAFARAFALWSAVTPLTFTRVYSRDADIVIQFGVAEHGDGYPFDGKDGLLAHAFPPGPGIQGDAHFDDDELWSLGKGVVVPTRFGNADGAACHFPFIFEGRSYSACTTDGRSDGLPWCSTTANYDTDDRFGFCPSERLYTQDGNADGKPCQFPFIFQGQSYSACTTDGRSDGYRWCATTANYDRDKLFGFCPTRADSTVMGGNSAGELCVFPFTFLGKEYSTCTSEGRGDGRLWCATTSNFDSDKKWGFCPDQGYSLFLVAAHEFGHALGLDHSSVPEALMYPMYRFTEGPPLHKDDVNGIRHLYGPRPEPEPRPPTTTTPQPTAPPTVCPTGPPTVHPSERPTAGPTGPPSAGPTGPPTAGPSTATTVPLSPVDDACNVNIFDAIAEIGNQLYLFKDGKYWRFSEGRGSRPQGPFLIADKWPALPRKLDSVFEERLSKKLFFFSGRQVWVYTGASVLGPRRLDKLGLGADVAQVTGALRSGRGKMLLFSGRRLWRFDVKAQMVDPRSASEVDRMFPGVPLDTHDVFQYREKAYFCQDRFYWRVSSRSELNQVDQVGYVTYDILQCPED
Assay: cell-based or functional assay
readout: IC50 (nM), DQ-gelatin digestion, MMP3/MMP9 assay

Lab book: IC50 (nM), DQ-gelatin digestion, MMP3/MMP9 assay of F20-VH-GL1/B03-VL-GL1c (antibody, human IgG4, V domains shown) VH: EVQLVESGGGLVQPGRSLRLSCAASGFTFNDYPMHWVRQAPGKGLEWVSGISSNSGSVGYADSVKGRFTISRDNAKNSLYLQMNSLRAEDTALYYCARDKIYYGSGSYDFYYYYGMDVWGQGTTVTVSS VL: SSELTQDPAVSVALGQTVRITCQGDSLRSYYASWYQQKPGQAPVVVIYGKNNRPSGIPDRFSGSSSGNTVSLTITGAQAEDEADYYCQSRDNIGNHRVVLFGGGTKLTVL noted as 9.05 nM

Data point: F20-VH-GL1-V4-V9-V14/B03-VL-GL1c (antibody, human IgG4 S228P, V domains shown) VH: EVQLVESGGGLVQPGRSLRLSCAASGFTFNDYPMHWVRQAPGKGLEWVSGISSRSGSVGYAESVKGRFTISRDNAKNSLYLQMNSLRAEDTALYYCARDKIYYGSGSYDFYYYYGIDVWGQGTTVTVSS VL: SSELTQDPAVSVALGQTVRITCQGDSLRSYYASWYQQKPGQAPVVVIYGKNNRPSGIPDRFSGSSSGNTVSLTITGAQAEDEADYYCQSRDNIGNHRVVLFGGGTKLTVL ; IC50 (nM), DQ-gelatin digestion, MMP3/MMP9 assay = 5.48 nM

// F20-VH-GL1-V4-V9-V14/B08-VL-GL6c (antibody, human IgG4 S228P, V domains shown) VH: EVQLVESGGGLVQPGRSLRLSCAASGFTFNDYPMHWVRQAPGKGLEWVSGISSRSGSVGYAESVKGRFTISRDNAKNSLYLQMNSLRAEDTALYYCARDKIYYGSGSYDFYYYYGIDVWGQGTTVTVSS VL: QSALTQPASVSGSPGQSITISCTGTSNDVGAYNRVSWYQQHPGKAPKLMIYGVSNRPSGVSNRFSGSKSGNTASLTISGLQAEDEADFYCTSYSSSTTSYVVFGGGTKVTVL : IC50 (nM), DQ-gelatin digestion, MMP3/MMP9 assay value = 20.4 nM
